test system: CP237; assay: qHTS profiling for inhibitors of Plasmodium falciparum proliferation (AID 504749); note: nearly all actives have a fitted effect of over 60% in size; details: P. falciparum in erythrocytes, SYBR Green DNA, 72 h; series mostly up to 28.7 µM
Results filed as inconclusive are left out. Calls of active or inactive are those of the source. Calls come from the whole dose curve; as a rule, active = well fitted inhibition curve with a large enough effect; inconclusive = small, poorly fitted or top-dose-only effect; inactive = flat fitted curve, though single readings scatter.
# valid calls are true (active), false (inactive); nothing else

Tell me the assay call for COc1cc(C(=S)N2CCOCC2)cc(OC)c1OC please.
false

Hey, what did the test say about Oc1c(I)cc(Cl)c2cccnc12 ?
false

Test call for this molecule, please: CCC(C(=O)OCCN(CC)CC)c1ccccc1 (configuration not stated)
false

Just curious, what result did C[C@H](O)C(=O)Nc1c(I)c(C(=O)NC(CO)CO)c(I)c(C(=O)NC(CO)CO)c1I get here?
false

Test call, this molecule: CC(C)NC[C@@H](O)COc1cccc2ccccc12
true

Could you check what this test reported for CC[N+](CC)(CCNC(=O)C(=O)NCC[N+](CC)(CC)Cc1ccccc1Cl)Cc1ccccc1Cl ?
true

Please share the test call associated with NC(=O)C(=O)N/N=C/c1ccc([N+](=O)[O-])o1 .
false

Which outcome was entered for the molecule CCCCOc1ccc(OCCCN2CCOCC2)cc1 in this test?
false

Record lookup: outcome of this test for CCCCCCCCCCCCCCNCCO ?
true

Name the outcome recorded for CC(=O)OCC(=O)NCCCOc1cccc(CN2CCCCC2)c1 in the assay.
false

Assay outcome for COc1cc(-c2ccc(=O)[nH]n2)ccc1OC(F)F : what was it?
true

# fetch the recorded call for CN1CCC(=C2c3ccccc3Sc3ccccc32)CC1 here
true
